Tested on: KB-31 epidermoid carcinoma cells
Assay: Cell growth inhibition, KB-31 epidermoid carcinoma cells (methylene blue staining)
Assay type: cell-based, human
Settings: KB-31 cells, 4 days incubation with compound
Experimental: Stock solutions of the test compounds (10 mM) are prepared in DMSO and stored at −20° C. […] The cells are seeded in a quantity of 1.5×10^3 cells/well in 96-well microtitre plates, and incubated over night. […] After washing, the dye is eluted with 3% HCl and the optical density measured at 665 nm with a SpectraMax 340 (Molecular Devices, Sunnyvale, Calif.). […]
pIC50: −log10 of the molar value.
We begin with a simple list: items and their reported pIC50.
reported.property: pIC50

molecule: C/C(=C\c1csc(C)n1)[C@@H]1C[C@@H]2O[C@]2(C)CCC[C@H](C)[C@H](O)[C@@H](C)C(=O)C(C)(C)[C@@H](O)CC(=O)O1
value: 9.55
//
molecule: C/C(=C\c1csc(C)n1)C1CC2OC2(C)CCCC(C)C(O)C(C)C(=O)C(C)C(O)CC(=O)O1 (centres unmarked)
value: 9.31
